These measurements were taken from patent US20200165344A1.

# SYSTEM: T1, recombinant human NKG2D-Fc (human, UniProt P26718 73-216)
# T1 construct: extracellular domain; also called human NKG2D-Fc fusion protein; NKG2D-Fc-biotin; not shown: human IgG1 Fc domain
# T1 sequence (looked up): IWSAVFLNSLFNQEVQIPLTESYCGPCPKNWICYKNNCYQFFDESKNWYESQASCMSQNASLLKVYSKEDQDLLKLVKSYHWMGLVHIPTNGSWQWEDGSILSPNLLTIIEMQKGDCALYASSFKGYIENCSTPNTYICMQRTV
# ASSAY SUMMARY: ELISA, NKG2D-Fc coated
MEASUREMENT TYPE: binding result

ADI-29404 (antibody, V domains shown, also called F04) VH: QVQLQQWGAGLLKPSETLSLTCAVYGGSFSGYYWSWIRQPPGKGLEWIGEIDHSGSTNYNPSLKSRVTISVDTSKNQFSLKLSSVTAADTAVYYCARARGPWSFDPWGQGTLVTVSS VL: DIQMTQSPSTLSASVGDRVTITCRASQSISSWLAWYQQKPGKAPKLLIYKASSLESGVPSRFSGSGSGTEFTLTISSLQPDDFATYYCEQYDSYPTFGGGTKVEIK = binds
ADI-29407 (antibody, V domains shown) VH: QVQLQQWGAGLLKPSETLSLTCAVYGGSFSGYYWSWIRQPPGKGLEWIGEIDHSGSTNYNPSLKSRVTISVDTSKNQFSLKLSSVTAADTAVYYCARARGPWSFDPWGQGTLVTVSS VL: DIQMTQSPSTLSASVGDRVTITCRASQSISSWLAWYQQKPGKAPKLLIYKASSLESGVPSRFSGSGSGTEFTLTISSLQPDDFATYYCQQYQSFPTFGGGTKVEIK = binds
